system: 855422-203-R-J1-PDC complex spheroid viability; assay: Anticancer human tumor 855422-203-R-J1-PDC patient-derived bladder carcinoma cell line growth inhibition [POLQ]; conditions: second compound 0.316 µM; first compound 0.316 µM; active means viability on the fitted dose curve at most 10% of control; inactive means the rest;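 further: spheroids exposed to compounds for seven days before readout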
Returns: one label drawn from active, inactive

{"columns": ["Compound", "Label"],
 "data": [
  ["COc1cccc(OCCCN)c1-c1cc(Nc2cnc(C#N)cn2)n[nH]1 + COC1C(OC(N)=O)C(O)C(Oc2ccc3c(O)c(NC(=O)c4ccc(O)c(CC=C(C)C)c4)c(=O)oc3c2C)OC1(C)C", "active"]
]}

Q: For CCCS(=O)(=O)Nc1ccc(F)c(C(=O)c2c[nH]c3ncc(-c4ccc(Cl)cc4)cc23)c1F + Cc1cccc(N(C)C(=O)C2C(O)CCN2c2nc(C)cc(C(F)(F)F)c2C#N)c1 , which call appears in the assay record?
A: inactive

Q: For CNCc1ccc(-c2[nH]c3cc(F)cc4c3c2CCNC4=O)cc1 + Cc1cccc(N(C)C(=O)C2C(O)CCN2c2nc(C)cc(C(F)(F)F)c2C#N)c1 , which call appears in the assay record?
A: inactive

Q: For COc1cc2cc(C(=O)CCC(=O)O)sc2cc1OC + COC1C(OC(N)=O)C(O)C(Oc2ccc3c(O)c(NC(=O)c4ccc(O)c(CC=C(C)C)c4)c(=O)oc3c2C)OC1(C)C , which call appears in the assay record?
A: inactive

Q: For COc1ccc([C@@H](O)c2cc(-c3ncnc4cc(N5CCOCC5)ccc34)c(F)cc2Cl)nn1 + COC1C(OC(N)=O)C(O)C(Oc2ccc3c(O)c(NC(=O)c4ccc(O)c(CC=C(C)C)c4)c(=O)oc3c2C)OC1(C)C , which call appears in the assay record?
A: inactive

Q: For COc1ccc([C@@H](O)c2cc(-c3ncnc4cc(N5CCOCC5)ccc34)c(F)cc2Cl)nn1 + Cc1cccc(N(C)C(=O)C2C(O)CCN2c2nc(C)cc(C(F)(F)F)c2C#N)c1 , which call appears in the assay record?
A: inactive

Q: For O=c1[nH]cc(F)c(=O)[nH]1 + Nc1ccc(C#CCN(C(=O)Cc2ncc(C(F)(F)F)cc2C(F)(F)F)c2ccc(F)cc2)nn1 , which call appears in the assay record?
A: inactive

Q: For CC(C)n1c(=O)n(C)c2cnc3cc(F)c(-c4ccc(OCCCN5CCCCC5)nc4)cc3c21 + COC1C(OC(N)=O)C(O)C(Oc2ccc3c(O)c(NC(=O)c4ccc(O)c(CC=C(C)C)c4)c(=O)oc3c2C)OC1(C)C , which call appears in the assay record?
A: inactive
